# target or test system: LYN (human) (UniProt P07948)
# Sequence (P07948 whole entry, looked up): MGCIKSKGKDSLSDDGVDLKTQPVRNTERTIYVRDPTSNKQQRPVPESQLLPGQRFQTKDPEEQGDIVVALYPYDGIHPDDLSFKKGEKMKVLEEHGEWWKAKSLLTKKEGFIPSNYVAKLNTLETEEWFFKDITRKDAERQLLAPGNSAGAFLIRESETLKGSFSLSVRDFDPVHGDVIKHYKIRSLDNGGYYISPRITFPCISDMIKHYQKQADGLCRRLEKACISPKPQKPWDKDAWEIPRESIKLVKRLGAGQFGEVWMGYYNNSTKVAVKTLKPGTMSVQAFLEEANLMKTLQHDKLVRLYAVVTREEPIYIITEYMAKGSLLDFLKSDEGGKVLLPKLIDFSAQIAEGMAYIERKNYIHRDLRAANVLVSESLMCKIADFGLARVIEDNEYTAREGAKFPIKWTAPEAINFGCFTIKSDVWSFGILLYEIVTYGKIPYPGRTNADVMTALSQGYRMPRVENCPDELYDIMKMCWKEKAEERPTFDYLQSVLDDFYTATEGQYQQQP
# assay protocol: KINOMEscan competition binding
# measurement setup: compound 10.0 µM
property measured: kinase still bound, per cent of control
Could you give the number and then its unit, please?

Exam item: Please list kinase still bound, per cent of control recorded for the compound COc1cc(C)c(Sc2cnc(NC(=O)c3ccc(CNC(C)C(C)C)cc3)s2)cc1C(=O)N1CCN(C(C)=O)CC1 (stereo not drawn)
Marked response: 100%

Exam item: Let me know recorded kinase still bound, per cent of control for CCCS(=O)(=O)Nc1ccc(F)c(C(=O)c2c[nH]c3ncc(Cl)cc23)c1F , thanks.
Marked response: 24%

Exam item: Complete the entry with kinase still bound, per cent of control for CC1=C(C(=O)Nc2cc3cn[nH]c3cc2F)C(c2ccc(C(F)(F)F)cc2)CC(=O)N1 (stereo not drawn)
Marked response: 72%

All figures here come from the kinase profiling compilation of Christmann-Franck et al. (2016).
